test system: HepG2; test: Antiproliferative activity against human HepG2 cells after 48 hrs by MTT assay; format: functional, cell-based; conditions: HepG2, 48 h
Binarize IC50 at 90 µM; below is t, at or above is f.

Examples with answers:
• Cc1ccc2[nH]cc(CCNC(=O)c3ccc(Cl)cc3O)c2c1 = f
• O=C(NCCc1c[nH]c2ccc(Br)cc12)c1ccccc1O = f
• Cc1ccc(C(=O)NCCc2c[nH]c3ccc(C)cc23)c(O)c1 = f
• O=C(NCCc1c[nH]c2ccc(Br)cc12)c1cc(Cl)ccc1O = t
• Cc1cccc(C(=O)NCCc2c[nH]c3ccc(F)cc23)c1O = f
• Cc1cccc(C(=O)NCCc2c[nH]c3ccc(Cl)cc23)c1O = t

Query: # check: IC50 < 90 µM for O=C(NCCc1c[nH]c2ccc(F)cc12)c1ccccc1O
Reply: f

Query: Determine if COc1ccc2[nH]cc(CCNC(=O)c3ccccc3O)c2c1 shows IC50 strictly lower than 90 µM.
Reply: f

Query: For Cc1ccc2[nH]cc(CCNC(=O)c3cc(Br)ccc3O)c2c1 , is the recorded IC50 below the cut-off of 90 µM?
Reply: f

Query: Find out if reported IC50 for Cc1ccc(C(=O)NCCc2c[nH]c3ccc(F)cc23)c(O)c1 is less than 90 µM
Reply: f
